Biological target: N. gonorrhea RNase P (M1 RNA + C5 protein) (Neisseria gonorrhoeae)
Assay: Time resolved fluorescence (TRF) RNase P inhibition assay
Assay type: biochemical
Conditions: 30 min enzyme reaction, ptGLN substrate; read-out: N. gonorrhoeae TRF IC50(μM) (Example 15)
assay-readout: log10 of IC50 (log10 of the value in µM)
Note the log scale: values are log10 of IC50 expressed in µM.

Consider the reported log10 of IC50 for these compounds:
compound_structure=O=C(O)c1ccc(-c2ccc(/C=C3\S/C(=N\c4ccccc4)N(c4ccccc4)C3=O)o2)cc1 target_entity="N. gonorrhea RNase P (M1 RNA + C5 protein) (Neisseria gonorrhoeae)" numeric_value=0.85
compound_structure=N=C1/C(=C/c2ccc(-c3ccc(C(=O)O)cc3)o2)C(=O)N=C2SC(c3ccccc3)=NN12 target_entity="N. gonorrhea RNase P (M1 RNA + C5 protein) (Neisseria gonorrhoeae)" numeric_value=0.30
compound_structure=CC(=NNC(=N)N)c1ccc(C(=O)Nc2cccc(C(C)=NNC(=N)N)c2)cc1 target_entity="N. gonorrhea RNase P (M1 RNA + C5 protein) (Neisseria gonorrhoeae)" numeric_value=0.70

What measured log10 of IC50 is associated with `CC(=NNC(=N)N)c1cccc(NC(=O)c2ccc(-c3ccccc3)cc2)c1` on N. gonorrhea RNase P (M1 RNA + C5 protein) (Neisseria gonorrhoeae)?
1.90

Write down the reported log10 of IC50 of `CC(=NNC(=N)N)c1cccc(NC(=O)[C@H](CCc2ccccc2)NC(=O)c2cccc(I)c2)c1` , test system: N. gonorrhea RNase P (M1 RNA + C5 protein) (Neisseria gonorrhoeae).
0.78

Form: Entry = `CC(=NNC(=N)N)c1ccc(NC(=O)c2ccc(C(C)=NNC(=N)N)cc2)cc1` | System = N. gonorrhea RNase P (M1 RNA + C5 protein) (Neisseria gonorrhoeae) | log10 of IC50 = ____
0.48

Request: log10 of IC50, test system N. gonorrhea RNase P (M1 RNA + C5 protein) (Neisseria gonorrhoeae), entry `CC(=NNC(=N)N)c1ccc(NC(=O)Nc2ccc(C(C)=NNC(=N)N)cc2)cc1`
0.78

What value of log10 of IC50 on N. gonorrhea RNase P (M1 RNA + C5 protein) (Neisseria gonorrhoeae) does `CC(=NNC(=N)N)c1cccc(NC(=O)[C@@H]2Cc3ccccc3CN2C(=O)c2cccc(C(C)=NNC(=N)N)c2)c1` have?
0.48

* * *

Molecular target: N. gonorrhea RNase P (M1 RNA + C5 protein) (Neisseria gonorrhoeae, UniProt Q5F4W3)
Sequence (Q5F4W3 whole entry): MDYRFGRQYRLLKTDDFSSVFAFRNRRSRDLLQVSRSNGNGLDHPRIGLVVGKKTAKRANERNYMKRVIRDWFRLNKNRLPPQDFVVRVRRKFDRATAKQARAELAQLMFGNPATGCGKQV
Test: Time resolved fluorescence (TRF) RNase P inhibition assay
Format: biochemical
Settings: 30 min enzyme reaction, ptGLN substrate; read-out: N. gonorrhoeae TRF IC50(μM) (Example 15)
assay-readout: IC50 (µM)
Give the value, in units of µM, as a plain number.

Some compounds with known IC50 results, for comparison:
compound="CC(=O)Oc1cccc2ccc(/C=C/c3ccc(C(=O)O)cc3)nc12 [MES 110394]" target_entity="N. gonorrhea RNase P (M1 RNA + C5 protein) (Neisseria gonorrhoeae, UniProt Q5F4W3)" assay_readout=IC50 numeric_value=9
compound="CC(=NNC(=N)N)c1cccc(NC(=O)[C@@H]2CCCN2C(=O)c2cccc(C(C)=NNC(=N)N)c2)c1 [MES 10926]" target_entity="N. gonorrhea RNase P (M1 RNA + C5 protein) (Neisseria gonorrhoeae, UniProt Q5F4W3)" assay_readout=IC50 numeric_value=43

We next turn to a different compound, shown below.
Report IC50 for CC(=NNC(=N)N)c1cccc(NC(=O)[C@H](Cc2ccc(-c3ccccc3)cc2)NC(=O)c2cccc(I)c2)c1 [MES 10908] please.
5
